B1: PKD2L1 (parent)
chain: VFIFYYVVEEILELHIHRLRYLSS

Variants of: B1
Assay: protein stability index of a GFP-peptide fusion (GPS, HEK-293T) (PSI 1-6); higher = more stable;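 note: lentivirally expressed fusions sorted by FACS into six bins by GFP to DsRed ratio, PSI derived from sequencing read proportions per bin multiplied by bin number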
Conditions: c terminus: a fixed tail appended
Binning rule for recorded protein stability index: bottom end = under 2, midrange = from 2 up to 3, top end = 3 and over

>  <seq_string>
VFIFYYVVEEIRELHIHRLRYLSS [L12R]

>  <category_label>
midrange

$$$$
>  <seq_string>
VFIFYYVVEEILEDHIHRLRYLSS [L14D]

>  <category_label>
bottom end

$$$$
>  <seq_string>
VFIFYYSVEEILELHIHRLRYLSS [V7S]

>  <category_label>
top end

$$$$
>  <seq_string>
VFIFYYVVEEILKLHIHRLRYLSS [E13K]

>  <category_label>
midrange

$$$$
>  <seq_string>
VFIFYYVVEAILELHIHRLRYLSS [E10A]

>  <category_label>
top end

$$$$
>  <seq_string>
VFIFDYVVEEILELHIHRLRYLSS [Y5D]

>  <category_label>
top end

$$$$
